- assay_comment: Tacrolimus whole blood concentration, trough and 12-h AUC after kidney transplantation (chemiluminescent microparticle immunoassay)
- Type: in vivo, human
- study_conditions: human, whole blood, oral, 30 mg, day 1 post-transplantation; CYP3A5 non-expressers, diltiazem 30 mg every 12 h (n = 9); mean ± SD
attribute_measured: C0 (ng/mL)
Give the quantity in ng/mL, number only.

Request: Reported C0 for C=CC[C@@H]1/C=C(\C)C[C@H](C)C[C@H](OC)[C@H]2O[C@@](O)(C(=O)C(=O)N3CCCC[C@H]3C(=O)O[C@H](/C(C)=C/[C@@H]3CC[C@@H](O)[C@H](OC)C3)[C@H](C)[C@@H](O)CC1=O)[C@H](C)C[C@@H]2OC [Tacrolimus] : what is it?
Response: 13.1
